# Tested on: HS 578T breast
# test_name: NCI tumour cell line growth inhibition, 48 h
Provide the recorded TGI for the entries that follow.

Request: Give reported TGI for CCOC(=O)c1c(-c2ccc(OC)c(O)c2)c(C#N)c(=S)n(C2OC(CO)C(O)C(O)C2O)c1-c1ccccc1 (stereo not given) (HS 578T breast)
Result: > 100 µM

Request: Give reported TGI for COc1cc(-c2[o+]c3cc(O)cc(OC4OC(CO)C(O)C(O)C4O)c3cc2OC2OC(CO)C(O)C(O)C2O)cc(OC)c1O (stereo not given) (HS 578T breast)
Result: > 100 µM

Request: Give reported TGI for `O[C@H](CN1CC1)[C@@H](O)CN1CC1` (HS 578T breast)
Result: 79.2 µM

Request: Give reported TGI for `O=C(NCc1ccccc1)c1c(O)c2ccccc2[nH]c1=O` (HS 578T breast)
Result: > 100 µM

Request: Give reported TGI for `O=c1oc2ccccc2c(O)c1Cc1cccc(Cc2c(O)c3ccccc3oc2=O)c1` (HS 578T breast)
Result: > 100 µM

###

# Test system: OVCAR-5 ovarian
# test_name: NCI tumour cell line growth inhibition, 48 h; in the data active = GI50 below about 0.43 µM; inactive = the rest
Tick one outcome: Yes (active), No (inactive)

Request: // outcome(item) with item = `CC(=O)NS(=O)(=O)c1ccc(-n2nc(-c3ccccc3)cc2C2=CC(=O)C=CC2=O)cc1`
Result: No

Request: // outcome(item) with item = `COc1cc(CNC(=O)CCSc2nc3ccccc3c(=O)n2Cc2cc(OC)c(OC)c(OC)c2)cc(OC)c1OC`
Result: No

Request: // outcome(item) with item = CCC(=O)OC1=CN2C(=NC(c3ccc(N)cc3)=CC2c2cc(OC)c(OC)c(OC)c2)S1 (centres undefined)
Result: No

Request: // outcome(item) with item = `CC[C@H](C)[C@H](NC(=O)c1nccn1C)C(=O)N(C)[C@H](C[C@@H](OC(C)=O)c1nc(C(=O)N[C@@H](Cc2ccccc2)C[C@H](C)C(=O)OC)cs1)C(C)C`
Result: No

Request: // outcome(item) with item = `NC(=S)N/N=C\c1nccc2c(C(F)(F)C(F)(F)C(F)(F)F)cccc12`
Result: Yes

Request: // outcome(item) with item = `N#Cc1ncc(N2C(=O)C3(CCC3)N(c3ccc(OC4CCNCC4)nc3)C2=S)cc1C(F)(F)F`
Result: No

Request: // outcome(item) with item = `Cc1[nH]n(-c2ccccc2)c(=O)c1C(=O)c1ccccc1`
Result: No

Request: // outcome(item) with item = `CN(C)c1ccc(N=C(C#N)c2nc(N)nc(N3CCN(c4ccccc4)CC3)n2)cc1`
Result: No

Request: // outcome(item) with item = `O=c1oc2cc(OS(=O)(=O)c3ccccc3)ccc2c2c1CCCCC2`
Result: No

###

# System: UACC-257 melanoma
# test_name: NCI tumour cell line growth inhibition, 48 h
Provide the recorded TGI for the entries that follow.
// note: answer is a bare numeric in µM

Request: Annotate the compound `COC(=O)/C=C\C(C#N)(C#N)N=Cc1ccsc1` with its measured TGI.
Result: 9.35

Request: Annotate the compound `O=C(C=P(c1ccccc1)(c1ccccc1)c1ccccc1)c1ccc(-c2ccc(F)cc2F)cc1` with its measured TGI.
Result: 8.57

Request: Annotate the compound `Cc1ccc(S(=O)(=O)N2CCN(CCO)CCN(S(=O)(=O)c3ccc(C)cc3)CCN(CCO)CC2)cc1` with its measured TGI.
Result: 25.1

Request: Annotate the compound O=S1(=O)CC(Br)C(Br)C1 (centres undefined) with its measured TGI.
Result: 51.2

###

# Tested on: CAKI-1 renal
# test_name: NCI tumour cell line growth inhibition, 48 h
quantity_name: TGI

Request: Annotate the compound `C=C1C(=O)O[C@H]2[C@H]([C@H](C)CCCC(C)=O)O[C@H]([C@@]3(C)CCC(=O)O3)C[C@@H]12` with its measured TGI.
Result: 54.3 µM

Request: Annotate the compound `CC(C)N(Cc1ccccc1)S(=O)(=O)c1n[nH]c(C(C)(C)C)n1` with its measured TGI.
Result: > 100 µM

Request: Annotate the compound CC(C)=CCC/C(C)=C/[C@H]1OC(=O)CC12C[C@H](O)C=CC2=O (some centres undefined) with its measured TGI.
Result: 2.3 µM

Request: Annotate the compound `Cc1cccc(O)c(=O)c1` with its measured TGI.
Result: > 100 µM

Request: Annotate the compound `CC1(C)N=C(N)N=C(N)N1c1ccc(OCCCCNC(=O)c2ccc(S(=O)(=O)F)cc2)c(Cl)c1` with its measured TGI.
Result: > 100 µM

Request: Annotate the compound `Cc1nn2c(/C=C3\C(=O)Nc4ccccc43)c(C)nc2s1` with its measured TGI.
Result: > 100 µM

Request: Annotate the compound CCOC(=O)NC(=O)c1cn(C2OC(CO)C(O)C2O)c(=O)[nH]c1=O (centres undefined) with its measured TGI.
Result: > 100 µM

Request: Annotate the compound `COc1cc(C(=O)C/C(CCC(=O)Nc2ccc(Cl)cc2Cl)=N/Nc2nnc(C)n2N)ccc1O` with its measured TGI.
Result: > 100 µM

Request: Annotate the compound `Cc1cccc2c1C(=O)[C@@](C)([C@]1(C)Nc3cccc(C)c3C1=O)N2` with its measured TGI.
Result: > 100 µM

Request: Annotate the compound `CCOC(=O)c1cc(-c2ccn(C(C)=O)c2)c(-c2cc(C)co2)[nH]1` with its measured TGI.
Result: > 100 µM

Request: Annotate the compound `C=CCn1c(=O)c2ccccc2[n+]2c(-c3cccc([N+](=O)[O-])c3)csc12` with its measured TGI.
Result: > 100 µM

Request: Annotate the compound `CCOC(=O)/C(C#N)=C(N)/C(=N\Nc1cccc(C(F)(F)F)c1)C(=O)OCC` with its measured TGI.
Result: > 100 µM

Request: Annotate the compound C[C@]12CC[C@H]3[C@@H](CCC4=C[C@@H](OC5OCC(OC6OC(CO)C(O)C(O)C6O)C(O)C5O)CC[C@@]43C=O)[C@@]1(O)CCC2C1=CC(=O)OC1 (some centres undefined) with its measured TGI.
Result: 1.62 µM

Request: Annotate the compound `CCCCCCCCC[n+]1cccc(C2C(C(=O)OCC)=C(C)NC(C)=C2C(=O)OCC)c1` with its measured TGI.
Result: 28.2 µM

Request: Annotate the compound CCOC(=O)C1=C(C)N(c2ccc(C)cc2)C2(O)C=CC(=O)C3=C(O)c4ccccc4C(=O)C312 (centres undefined) with its measured TGI.
Result: > 100 µM

Request: Annotate the compound `C=C1C[C@@H]2[C@H](CC[C@]3(C)C(=O)CC[C@@H]23)[C@@]2(C)C=CC(=O)C=C12` with its measured TGI.
Result: > 100 µM

Request: Annotate the compound `CC(=O)Nc1ccc(/C=C(\NC(=O)c2ccccc2)C(=O)NNS(=O)(=O)c2ccc(C)cc2)cc1` with its measured TGI.
Result: > 100 µM

Request: Annotate the compound `NC1CCCCC1N.O=S(=O)([O-])CCCN1CCN(CCO)CC1.O=S(=O)([O-])CCCN1CCN(CCO)CC1.[Pt+4]` with its measured TGI.
Result: 9.16 µM

Request: Annotate the compound `N#C/C(=C\c1cccnc1)c1nc2ccccc2o1` with its measured TGI.
Result: > 100 µM

###

# Tested on: SK-MEL-28 melanoma
# test_name: NCI tumour cell line growth inhibition, 48 h
Provide the recorded TGI for the entries that follow.

Request: Annotate the compound `c1cc2ccc1CNCCN1CCNCc3ccc(cc3)Oc3ccc(cc3)CNCCN(CCNCc3ccc(cc3)O2)CCNCc2ccc(cc2)Oc2ccc(cc2)CNCC1` with its measured TGI.
Result: 3.21 µM

Request: Annotate the compound `C=CCn1c(=O)c2ccccc2[n+]2c(-c3cccc([N+](=O)[O-])c3)csc12` with its measured TGI.
Result: > 100 µM

Request: Annotate the compound `COC(=O)c1nn(C(=N)c2ccc(Cl)cc2)c2c1CCCCC2` with its measured TGI.
Result: > 100 µM

Request: Annotate the compound CCC1CCC2c3c([nH]c4ccccc34)C3C(=O)N(c4ccc(OC)cc4)C(=O)C3C2C1 (stereo not given) with its measured TGI.
Result: > 100 µM

Request: Annotate the compound `S=C(Nc1ccccc1)N1CCn2c1nsc2=Nc1ccccc1` with its measured TGI.
Result: > 100 µM

Request: Annotate the compound `CN(C)CCNc1c2c(c(NCCN(C)C)c3c(CO)c[nH]c13)C(=O)c1ccccc1C2=O` with its measured TGI.
Result: 10.6 µM

Request: Annotate the compound CCOC(=O)NC(=O)c1cn(C2OC(CO)C(O)C2O)c(=O)[nH]c1=O (stereo not given) with its measured TGI.
Result: > 100 µM

Request: Annotate the compound `Cc1cc(Cl)ccc1NC(=O)NC(C)(C)COC(=O)Nc1cccc(Cl)c1` with its measured TGI.
Result: > 100 µM

Request: Annotate the compound COc1ccc(C2NC(=O)Nc3c2c(=O)oc2c3ccc3ccccc32)cc1 (stereo not given) with its measured TGI.
Result: > 100 µM

Request: Annotate the compound COc1ccc(N2C(=O)C(N3C(=O)C=CC3=O)C2C=O)cc1 (stereo not given) with its measured TGI.
Result: > 100 µM
